These measurements were taken from patent US20210206850A1.

- Tested target: T1, human CD47ECD His tagged protein (human, UniProt Q08722 19-139, limits assumed)
- T1 construct: extracellular domain; also called HuCD47ECD 8xHis; monovalent CD47ECD His tagged protein
- T1 sequence (Q08722 19-139 limits assumed): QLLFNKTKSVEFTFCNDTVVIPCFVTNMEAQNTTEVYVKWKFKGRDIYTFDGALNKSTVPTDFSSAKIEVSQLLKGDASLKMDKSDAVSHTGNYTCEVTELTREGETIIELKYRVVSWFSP
- Assay overview: ELISA ligand blocking, plate coated with human CD47 ECD His tagged protein at 1 ug/ml; blocked ligand human SIRPaECD muFc at 1 ug/ml, anti-mouse IgG-HRP
Readout kind: IC50 (µg/mL)
Write the answer as a number in µg/mL, unit excluded.

Challenge: So what does the record say about IC50 for HuD36S4 H1/L1 humanized anti-CD47 antibody (antibody, V domains shown) VH: EVQLVESGGGLVQPGGSLRLSCAASGFTFSRYWMNWVRQAPGKGLEWVGQIRLKSDNYETHYAESVKGRFTISRDDSKNSLYLQMNSLKTEDTAVYYCAREGGYYVPFAYWGQGTLVTVSS VL: DIVMTQSPDSLAVSLGERATINCKSSQSLFKSRTRKNYLAWYQQKPGQPPKLLIYWASIRESGVPDRFSGSGSGTDFTLTISSLQAEDVAVYYCKQSYYLLTFGGGTKVEIK ?
Response given: 2.3
